Parameter: IC50. Scope: all listed entries.
target: Histone deacetylase 8 (Homo sapiens); experiment: Inhibition of HDAC8 in human HeLa cell nuclear extract using Boc-Lys(Ac)-AMC or Boc-Lys(triflouroacetyl)-AMC as substrate incubated for 30 mins and measured by fluorescence assay
Sequence (Q9BY41 whole entry): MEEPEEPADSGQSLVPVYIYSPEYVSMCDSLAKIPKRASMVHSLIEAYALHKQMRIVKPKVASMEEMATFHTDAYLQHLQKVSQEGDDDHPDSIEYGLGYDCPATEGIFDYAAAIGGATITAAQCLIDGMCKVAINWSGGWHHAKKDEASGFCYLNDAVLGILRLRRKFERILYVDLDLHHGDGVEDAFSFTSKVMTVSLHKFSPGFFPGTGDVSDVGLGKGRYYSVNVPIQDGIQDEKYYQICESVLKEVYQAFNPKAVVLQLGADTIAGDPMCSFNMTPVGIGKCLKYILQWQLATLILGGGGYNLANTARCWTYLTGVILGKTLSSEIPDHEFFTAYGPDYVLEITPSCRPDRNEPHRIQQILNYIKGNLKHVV
The reply should contain only the number, in µM.

Observe how each entry below is paired with its result.
O=C(CCCCOc1cccc(-c2nnc(-c3ccccc3)s2)c1)NO
3.11
O=C(CCCCCCOc1cccc(-c2nnc(-c3ccccc3)s2)c1)NO
2.39
O=C(CCCCCCOc1cccc(-c2nnc(-c3ccccc3Cl)s2)c1)NO
1.52

Below: the item to evaluate.
Value lookup for IC50; key = `O=C(CCCCCOc1cccc(-c2nnc(-c3ccccc3)s2)c1)NO` 3.03
